Data origin, for the record: patent US20160024213A1

- Assayed System: T1, Recombinant mouse MMR (R&D Systems) (mouse, UniProt Q61830 20-1388)
- T1 construct: Bought from R&D Systems; Immobilised on CM5 chip (SPR) or coated on plates (ELISA); also called mMMR; recombinant mMMR
- T1 sequence: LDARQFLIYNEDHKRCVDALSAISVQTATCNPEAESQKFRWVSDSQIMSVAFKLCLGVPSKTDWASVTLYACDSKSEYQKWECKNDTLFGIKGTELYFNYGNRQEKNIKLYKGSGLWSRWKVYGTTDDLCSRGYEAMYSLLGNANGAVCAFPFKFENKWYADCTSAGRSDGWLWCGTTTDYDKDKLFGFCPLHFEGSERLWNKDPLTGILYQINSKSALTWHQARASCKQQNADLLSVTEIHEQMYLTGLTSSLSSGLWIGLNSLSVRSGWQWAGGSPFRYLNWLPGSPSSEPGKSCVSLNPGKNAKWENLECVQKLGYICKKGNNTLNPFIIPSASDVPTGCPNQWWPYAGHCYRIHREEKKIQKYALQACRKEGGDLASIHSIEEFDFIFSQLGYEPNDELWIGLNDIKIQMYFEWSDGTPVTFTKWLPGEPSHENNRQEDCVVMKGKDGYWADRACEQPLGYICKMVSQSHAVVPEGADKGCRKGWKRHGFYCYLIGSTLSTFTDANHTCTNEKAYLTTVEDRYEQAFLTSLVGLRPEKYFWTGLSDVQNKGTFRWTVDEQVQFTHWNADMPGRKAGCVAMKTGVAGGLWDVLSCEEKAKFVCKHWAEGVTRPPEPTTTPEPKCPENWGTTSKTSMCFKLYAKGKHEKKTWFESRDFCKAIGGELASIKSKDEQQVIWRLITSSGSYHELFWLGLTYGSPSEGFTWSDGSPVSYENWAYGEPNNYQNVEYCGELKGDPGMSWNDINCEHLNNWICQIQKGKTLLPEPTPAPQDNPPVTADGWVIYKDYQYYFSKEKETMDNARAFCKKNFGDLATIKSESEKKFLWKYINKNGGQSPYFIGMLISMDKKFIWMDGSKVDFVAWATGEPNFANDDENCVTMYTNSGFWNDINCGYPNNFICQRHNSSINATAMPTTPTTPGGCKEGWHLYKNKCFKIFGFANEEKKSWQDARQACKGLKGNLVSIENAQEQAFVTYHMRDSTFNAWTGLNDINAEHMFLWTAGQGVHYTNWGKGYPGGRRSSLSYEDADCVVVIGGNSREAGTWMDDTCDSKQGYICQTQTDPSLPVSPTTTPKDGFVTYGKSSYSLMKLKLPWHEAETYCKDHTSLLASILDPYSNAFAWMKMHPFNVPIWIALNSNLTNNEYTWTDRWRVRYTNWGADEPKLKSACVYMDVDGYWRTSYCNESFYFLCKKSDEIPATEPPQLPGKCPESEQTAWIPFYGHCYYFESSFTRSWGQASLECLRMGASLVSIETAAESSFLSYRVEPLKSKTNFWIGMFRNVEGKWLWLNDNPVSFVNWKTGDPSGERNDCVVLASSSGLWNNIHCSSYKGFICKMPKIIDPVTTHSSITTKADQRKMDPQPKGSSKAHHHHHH
- Experiment: SPR, BIAcore T100, MMR on CM5 chip, Nanobody as analyte
For each entry below, report its kon value.
Form entry: enter the amount, then its unit.

Entry Anti-MMR Nanobody clone 1 (VHH, 99mTc-labelled at the His tail in the in vivo experiments; also called Anti-MMR Nb1; Nb MMR cl1) VHH: QVQLQESGGGLVQPGGSLRLSCAASGNIFSINAIGWYRQAPGKQRELVATITLSGSTNYADSVKGRFSISRDNAKNTVYLQMNSLKPEDTAVYYCNANTYSDSDVYGYWGQGTQVTVSS needs its kon filled in; supply it.
576000 M⁻¹ s⁻¹

Entry Bivalent anti-MMR Nanobody 1 with human IgA hinge linker (VHH, Bivalent tandem of two clone 1 VHH domains in one chain; also called biv MMR linker 3 IgA; MMR biv IgA) QVQLQESGGGLVQPGGSLRLSCAASGNIFSINAIGWYRQAPGKQRELVATITLSGSTNYADSVKGRFSISRDNAKNTVYLQMNSLKPEDTAVYYCNANTYSDSDVYGYWGQGTQVTVSSSPSTPPTPSPSTPPASQVQLQESGGGLVQPGGSLRLSCAASGNIFSINAIGWYRQAPGKQRELVATITLSGSTNYADSVKGRFSISRDNAKNTVYLQMNSLKPEDTAVYYCNANTYSDSDVYGYWGQGTQVTVSSHHHHHH needs its kon filled in; supply it.
913000 M⁻¹ s⁻¹

Entry Anti-MMR Nanobody clone 3 (VHH, Monovalent, His-tagged; also called Anti-MMR Nb3; Nb clone 3) VHH: QVQLQESGGGLVQAGGSLRLSCAASGRTFSRDAMGWFRQAPGKEREFVAGISWSGGSTYYADSVKGRFTISRDGAKNTVNLQMNSLKPEDTAVYYCAASSIYGSAVVDGLYDYWGQGTQVTVSS needs its kon filled in; supply it.
97300 M⁻¹ s⁻¹
